# study_system: human Fc (human)
# protocol: ELISA, negative control
readout_kind: optical density (OD)
State the answer as a number, implicitly in OD.

Previously resolved entries follow.
Challenge: Can you share its optical density? I mean this binder: 376_D08 (antibody, V domains shown) VH: EVQLLESGGGLVQPGGSLRLSCAASGFTFDSYGMNWVRQAPGKGLEWVANINYNSGYKSYADSVKGRFTISRDNSKNTLYLQMNSLRAEDTAVYYCARAATWHDTALDYWGQGTLVTVSS VL: DIQMTQSPSSLSASVGDRVTITCRASQSILTYLNWYQQKPGKAPKLVIYYANNRPSGVPSRFSGSGSGTDFTLTISSLQPEDFATYYCQQSYSNPLTFGGGTKVEIK
Response given: 0.232

Challenge: Can you share its optical density? I mean this binder: 373_A12 (antibody, V domains shown) VH: EVQLLESGGGLVQPGGSLRLSCAASGFTFSSYSMNWVRQAPGKGLEWVSSINYNGGYTSYADSVKGRFTISRDNSKNTLYLQMNSLRAEDTAVYYCARGANWHDTALDYWGQGTLVTVSS VL: DIQMTQSPSSLSASVGDRVTITCRASQSILTYLNWYQQKPGKAPKLVIYAATSRASGVPSRFSGSGSGTDFTLTISSLQPEDFATYYCQQSYDTPLTFGGGTKVEIK
Response given: 0.179

Switching to the query record.
Challenge: Can you share its optical density? I mean this binder: 366_C07 (antibody, V domains shown) VH: EVQLLESGGGLVQPGGSLRLSCAASGFTFSSYSMNWVRQAPGKGLEWVSNINYNGGYTSYADSVKGRFTISRDNSKNTLYLQMNSLRAEDTAVYYCARSATWHDTHLDYWGQGTLVTVSS VL: DIQMTQSPSSLSASVGDRVTITCRASQSILTYVNWYQQKPGKAPKLLIYAATSRASGVPSRFSGSGSGTDFTLTISSLQPEDFATYYCQQSYNSPLTFGGGTKVEIK
Response given: 0.301
